The measurements presented in this section are drawn from ChEMBL document CHEMBL1134667.

- PROCEDURE_TEXT: Apical to basolateral effective permeability
- PROTOCOL_CONDITIONS: not told
PROPERTY: Papp A→B (nm/s)
Give the number; nm/s is assumed, so skip it.

Exercise: Need Papp A→B, item CC(=O)NCC(=O)NCCc1ccccc1
Solution: 219

Exercise: // same read-out, input: CNC(=O)[C@@H](Cc1ccccc1)NC(=O)[C@H](NC(C)=O)C(C)C
Solution: 9.1

Exercise: // same read-out, input: CC(=O)N[C@H](CC1CCCCC1)C(=O)NCCc1ccccc1
Solution: 583

----------
- PROCEDURE_TEXT: Partition coefficient (logP)
- PROTOCOL_CONDITIONS: octanol/water
Just a reminder that ties go to False: only logP strictly below 2 counts as True.

Exercise: I'd appreciate it if you could check whether CC(=O)N[C@H](Cc1ccccc1)C(=O)NCCc1ccccc1 has logP smaller than 2.
Solution: False

Exercise: // same read-out, input: CNC(=O)[C@@H](Cc1ccccc1)NC(=O)[C@H](NC(C)=O)C(C)C
Solution: True

Exercise: // same read-out, input: CC(=O)NCC(=O)NCCc1ccccc1
Solution: True

Exercise: // same read-out, input: CC(=O)N[C@@H](C(=O)NCCc1ccccc1)C(C)C
Solution: True

Exercise: // same read-out, input: CC(=O)N[C@H](CC1CCCCC1)C(=O)NCCc1ccccc1
Solution: False
